Source of measurements: ChEMBL document CHEMBL1123648

Measured TDS of individual entries
# Procedure Details: Toxicity day survivors expressed as number of animals that survived to day five/ number of test animals under control group C at a dose of 100 mg/kg; 6 survived out of 6
# Assay type: functional, Mus musculus
Please reply with the number alone, leaving off any unit.

Example results:
* CC(C)NC(=O)OCc1c(COC(=O)NC(C)C)c(-c2ccc(Cl)c(Cl)c2)n2c1CCC2 | 6
* CNC(=O)OCc1c(COC(=O)NC)c2n(c1C)CSC2 | 6
* CNC(=O)OCc1c(COC(=O)NC)c2n(c1C)CS(=O)(=O)C2 | 6

Now, please, on to the next compound.
Q: Any idea what its TDS is? The compound is CNC(=O)OCc1c(COC(=O)NC)c2n(c1C)C[S+]([O-])C2 (centres undefined)
A: 6

###

# Procedure Details: Antileukemic activity against Murine P388 lymphocytic leukemia, body weight difference of the test animals compared to control group A animals at a dose of 25 mg/kg
# Type: functional, Mus musculus
# Design: unit not given here
Property: BWD
// keep it numeric: no unit symbol after the value

- CC(C)NC(=O)OCc1c(COC(=O)NC(C)C)c(-c2ccc(Cl)c(Cl)c2)n2c1CSC2: -1.3
- CC(C)NC(=O)OCc1c(COC(=O)NC(C)C)c(-c2ccc(Cl)c(Cl)c2)n2c1C[S+]([O-])C2 (centres undefined): -0.9
- CC(C)NC(=O)OCc1c(COC(=O)NC(C)C)c(-c2ccc(Cl)c(Cl)c2)n2c1CCC2: -1.7

Kindly consider the entry below.
Q: Returns the measured BWD for the input compound. Input: Cc1c(COC(=O)NC(C)C)c(COC(=O)NC(C)C)c2n1CSC2
A: 1.9
